assay: NCI Yeast Anticancer Drug Screen. Data for the mgt1 strain (AID 153); settings: S. cerevisiae mgt1 mutant growth inhibition; at 11.0 µM; hits give high values
This is part of a sample that, as a whole, favours compounds with a hit. Of some 79,000 tested, about 15% had one in any assay.
QUANTITY: growth inhibition (%)

{"COMPOUND": "Cc1ccc(-c2ccc(Nc3c4ccccc4nc4ccccc34)cc2)cn1", "QUANTITY": "growth inhibition", "UNIT LABEL": "%", "RECORDED RESULT": 7}
{"COMPOUND": "CN1Cc2ccccc2/C=C\\c2ccccc21", "QUANTITY": "growth inhibition", "UNIT LABEL": "%", "RECORDED RESULT": -1}
{"COMPOUND": "NNC(=O)CCc1ccc2ccc3ccccc3c2c1", "QUANTITY": "growth inhibition", "UNIT LABEL": "%", "RECORDED RESULT": -5}
{"COMPOUND": "OCC1OC(OCC(O)C(O)C(O)C(/C=N/Nc2ccccc2)=N/Nc2ccccc2)C(O)C(O)C1O (stereo unspecified)", "QUANTITY": "growth inhibition", "UNIT LABEL": "%", "RECORDED RESULT": 11}
{"COMPOUND": "OC(c1ccc(F)cc1)(c1ccc(F)cc1)C1CC1", "QUANTITY": "growth inhibition", "UNIT LABEL": "%", "RECORDED RESULT": -47}
{"COMPOUND": "CCOC(=O)c1cnc2c(C(F)(F)F)cccc2c1N=[N+]=[N-]", "QUANTITY": "growth inhibition", "UNIT LABEL": "%", "RECORDED RESULT": 1}
{"COMPOUND": "O=C1C(=O)c2ccccc2C=C1[N+](=O)[O-]", "QUANTITY": "growth inhibition", "UNIT LABEL": "%", "RECORDED RESULT": 9}
{"COMPOUND": "CO[C@H]1C[C@](C)(O)Cc2cc3c(c(O)c21)C(=O)c1c(O)cc2c(c1C3=O)O[C@@H]1O[C@@]2(C)[C@H](O)[C@@H](N(C)C)[C@@H]1O", "QUANTITY": "growth inhibition", "UNIT LABEL": "%", "RECORDED RESULT": -19}
{"COMPOUND": "CCN(CC)[P+](c1ccccc1O)(N(CC)CC)N(CC)CC", "QUANTITY": "growth inhibition", "UNIT LABEL": "%", "RECORDED RESULT": -32}
{"COMPOUND": "CC(/C=C/c1ccc2c(c1)OCO2)[N+](=O)[O-] (stereo unspecified)", "QUANTITY": "growth inhibition", "UNIT LABEL": "%", "RECORDED RESULT": 99}
{"COMPOUND": "COc1ccccc1/C=C1\\Sc2scc(-c3cccc([N+](=O)[O-])c3)[n+]2C1=O", "QUANTITY": "growth inhibition", "UNIT LABEL": "%", "RECORDED RESULT": 99}
{"COMPOUND": "Cc1ccc(Cl)c2[nH]c(-c3ccccc3)cc(=O)c12", "QUANTITY": "growth inhibition", "UNIT LABEL": "%", "RECORDED RESULT": 19}
{"COMPOUND": "COCCOC(=O)CCn1cc(F)c(=O)[nH]c1=O", "QUANTITY": "growth inhibition", "UNIT LABEL": "%", "RECORDED RESULT": 16}
{"COMPOUND": "COP(=O)(OC)/C(=C\\C1=CN(C(c2ccccc2)(c2ccccc2)c2ccccc2)CN1)NC=O", "QUANTITY": "growth inhibition", "UNIT LABEL": "%", "RECORDED RESULT": 11}
{"COMPOUND": "O=C(O)c1cccc(-c2c3ccc(=O)cc-3oc3cc(O)ccc23)c1", "QUANTITY": "growth inhibition", "UNIT LABEL": "%", "RECORDED RESULT": 43}
{"COMPOUND": "Cc1ccc(NC(=O)/C(Cl)=C(\\Cl)C(=O)O)cc1C", "QUANTITY": "growth inhibition", "UNIT LABEL": "%", "RECORDED RESULT": 22}
{"COMPOUND": "O=Nc1cccnc1N=O", "QUANTITY": "growth inhibition", "UNIT LABEL": "%", "RECORDED RESULT": 79}
{"COMPOUND": "CCCCCCCCCCC(=O)Cl", "QUANTITY": "growth inhibition", "UNIT LABEL": "%", "RECORDED RESULT": -28}
{"COMPOUND": "CC(C)/C(Cl)=N\\OC(=O)Nc1cccc(Cl)c1", "QUANTITY": "growth inhibition", "UNIT LABEL": "%", "RECORDED RESULT": 12}
{"COMPOUND": "COc1ccc(/C=C2\\SC(=S)N(/C=C/c3nc4ccccc4[nH]c3=O)C2=O)cc1OC", "QUANTITY": "growth inhibition", "UNIT LABEL": "%", "RECORDED RESULT": 30}
{"COMPOUND": "CC(/C=C/c1ccc(Cl)cc1)=N\\NC(=S)NCC(C)C", "QUANTITY": "growth inhibition", "UNIT LABEL": "%", "RECORDED RESULT": -4}
{"COMPOUND": "O=C(NC(Nc1ccc(F)c(Cl)c1)(C(F)(F)F)C(F)(F)F)C(C(F)(F)F)C(F)(F)F", "QUANTITY": "growth inhibition", "UNIT LABEL": "%", "RECORDED RESULT": 54}
{"COMPOUND": "C/C(=N\\NC(=S)SCc1ccccc1)c1ccccn1", "QUANTITY": "growth inhibition", "UNIT LABEL": "%", "RECORDED RESULT": 83}
{"COMPOUND": "O=C1C2CC[C@@H]3C(=O)C(Cl)(Cl)[C@@H]3CCC2C1(Cl)Cl (stereo partly specified)", "QUANTITY": "growth inhibition", "UNIT LABEL": "%", "RECORDED RESULT": 8}
{"COMPOUND": "c1ccc2c(c1)Oc1cccc3cccc-2c13", "QUANTITY": "growth inhibition", "UNIT LABEL": "%", "RECORDED RESULT": 1}
{"COMPOUND": "CN=C(N)N/N=C/c1ccc2c(c1)Cc1ccccc1-2", "QUANTITY": "growth inhibition", "UNIT LABEL": "%", "RECORDED RESULT": 1}
{"COMPOUND": "C=CCC1=C(C)C(OC(=O)/C=C/c2ccccc2)CC1=O (stereo unspecified)", "QUANTITY": "growth inhibition", "UNIT LABEL": "%", "RECORDED RESULT": -1}
{"COMPOUND": "O=Nc1c(NO)ccc2nn(-c3ccccc3)nc12", "QUANTITY": "growth inhibition", "UNIT LABEL": "%", "RECORDED RESULT": 98}
{"COMPOUND": "CCCCCCCCCCCCCCCCCCNC", "QUANTITY": "growth inhibition", "UNIT LABEL": "%", "RECORDED RESULT": 21}
{"COMPOUND": "C=C1CC(Cn2cc(Br)c(=O)[nH]c2=O)(c2ccc(-c3ccccc3)cc2)OC1=O (stereo unspecified)", "QUANTITY": "growth inhibition", "UNIT LABEL": "%", "RECORDED RESULT": 29}
{"COMPOUND": "COc1ccc(Br)c(C(=O)Sc2nnnn2-c2cccc(Cl)c2)c1", "QUANTITY": "growth inhibition", "UNIT LABEL": "%", "RECORDED RESULT": 16}
{"COMPOUND": "CCCN(CCC)CC(O)c1cc(-c2ccc(Cl)cc2)nc2c(C)c(Cl)ccc12 (stereo unspecified)", "QUANTITY": "growth inhibition", "UNIT LABEL": "%", "RECORDED RESULT": 99}
{"COMPOUND": "COc1ccccc1C(=O)OCC1CCCN2CCCCC12 (stereo unspecified)", "QUANTITY": "growth inhibition", "UNIT LABEL": "%", "RECORDED RESULT": 73}
{"COMPOUND": "O=C(/C=C/c1cccc(Br)c1)c1cccs1", "QUANTITY": "growth inhibition", "UNIT LABEL": "%", "RECORDED RESULT": 85}
{"COMPOUND": "Cc1nc(-c2ccccc2)c(-c2ccccc2)s1", "QUANTITY": "growth inhibition", "UNIT LABEL": "%", "RECORDED RESULT": 44}
{"COMPOUND": "CC(C)=CC(=O)O[C@@H]1CC(C)(C)CC2C3=CCC4[C@]56CC[C@](O)(OC5)C(C)(C)C6CC[C@@]4(C)C3(C)CC[C@]21C(=O)O (stereo partly specified)", "QUANTITY": "growth inhibition", "UNIT LABEL": "%", "RECORDED RESULT": 57}
{"COMPOUND": "N#CC(C(=O)Nc1ccccc1)C1=C(Cl)C(=O)c2ccccc2C1=O (stereo unspecified)", "QUANTITY": "growth inhibition", "UNIT LABEL": "%", "RECORDED RESULT": 98}
{"COMPOUND": "CNC(=O)OCc1c(COC(=O)NC)c(-c2ccc(-c3ccccc3)cc2)n(C)c1C", "QUANTITY": "growth inhibition", "UNIT LABEL": "%", "RECORDED RESULT": -6}
{"COMPOUND": "O=S(=O)(CCCl)c1ccccc1Cl", "QUANTITY": "growth inhibition", "UNIT LABEL": "%", "RECORDED RESULT": 41}
{"COMPOUND": "COC(=O)c1ccc(CCC2=CC(=O)C(Br)=CC2=O)cc1", "QUANTITY": "growth inhibition", "UNIT LABEL": "%", "RECORDED RESULT": -4}
{"COMPOUND": "CN1c2ccc(Cl)cc2C(=O)NC1c1ccc([N+](=O)[O-])s1 (stereo unspecified)", "QUANTITY": "growth inhibition", "UNIT LABEL": "%", "RECORDED RESULT": 23}
{"COMPOUND": "S=C(Nc1ccc(Cl)c(Cl)c1)SCc1ccc2c(c1)OCO2", "QUANTITY": "growth inhibition", "UNIT LABEL": "%", "RECORDED RESULT": 99}
{"COMPOUND": "Nc1nc(-c2cccnc2)cc(-c2cc(-c3cccnc3)nc(N)n2)n1", "QUANTITY": "growth inhibition", "UNIT LABEL": "%", "RECORDED RESULT": 2}
{"COMPOUND": "c1ccc2c(c1)sc1cc3ccncc3cc12", "QUANTITY": "growth inhibition", "UNIT LABEL": "%", "RECORDED RESULT": -2}
{"COMPOUND": "O=c1c2ccccc2ncn1COCc1ccccc1", "QUANTITY": "growth inhibition", "UNIT LABEL": "%", "RECORDED RESULT": -11}
{"COMPOUND": "CCN(CC)CCC(=O)c1ccc(Oc2ccc(F)cc2)cc1", "QUANTITY": "growth inhibition", "UNIT LABEL": "%", "RECORDED RESULT": 76}
